system: Escherichia coli TOP10; experiment: shrunken log2 fold change of peptide-encoding DNA abundance (4.5 h post-induction vs induction); higher = less antimicrobial activity (less host growth inhibition); conditions: time post-induction: 4.5 h; library: site-saturation at positions 5, 18, 19, 20
OBSERVABLE: shrunken log2 fold change

record_sequence=RRIRERPPRLPRPRPRPMMAPRP observable="shrunken log2 fold change" measurement=-0.128
record_sequence=RRIRGRPPRLPRPRPRPYCFPRP observable="shrunken log2 fold change" measurement=0.0329
record_sequence=RRIRYRPPRLPRPRPRPDFLPRP observable="shrunken log2 fold change" measurement=-0.542
record_sequence=RRIRWRPPRLPRPRPRPSHKPRP observable="shrunken log2 fold change" measurement=-0.193
record_sequence=RRIRWRPPRLPRPRPRPWKHPRP observable="shrunken log2 fold change" measurement=0.0264
record_sequence=RRIRLRPPRLPRPRPRPGRDPRP observable="shrunken log2 fold change" measurement=0.26
record_sequence=RRIRERPPRLPRPRPRPKAYPRP observable="shrunken log2 fold change" measurement=-0.00666
record_sequence=RRIRYRPPRLPRPRPRPCTVPRP observable="shrunken log2 fold change" measurement=-0.0835
record_sequence=RRIRSRPPRLPRPRPRPVQDPRP observable="shrunken log2 fold change" measurement=0.339
record_sequence=RRIRARPPRLPRPRPRPAPQPRP observable="shrunken log2 fold change" measurement=0.932
record_sequence=RRIRKRPPRLPRPRPRPNAEPRP observable="shrunken log2 fold change" measurement=0.531
record_sequence=RRIRLRPPRLPRPRPRPICSPRP observable="shrunken log2 fold change" measurement=-0.0252
record_sequence=RRIRTRPPRLPRPRPRPQRGPRP observable="shrunken log2 fold change" measurement=0.31
record_sequence=RRIRQRPPRLPRPRPRPSPCPRP observable="shrunken log2 fold change" measurement=-0.0648
record_sequence=RRIRRRPPRLPRPRPRPHDWPRP observable="shrunken log2 fold change" measurement=0.312

---

system: Escherichia coli TOP10; test: shrunken log2 fold change of peptide-encoding DNA abundance (4.5 h post-induction vs induction); higher = less antimicrobial activity (less host growth inhibition); conditions: time post-induction: 4.5 h; library: site-saturation at positions 5, 18, 19, 20
Here the recorded shrunken log2 fold change is given for each entry.
OBSERVABLE: shrunken log2 fold change

record_sequence=RRIRCRPPRLPRPRPRPKHWPRP observable="shrunken log2 fold change" measurement=0.00902
record_sequence=RRIRNRPPRLPRPRPRPSFTPRP observable="shrunken log2 fold change" measurement=-0.255
record_sequence=RRIRFRPPRLPRPRPRPTPDPRP observable="shrunken log2 fold change" measurement=0.485
record_sequence=RRIRSRPPRLPRPRPRPNHDPRP observable="shrunken log2 fold change" measurement=-0.69
record_sequence=RRIRPRPPRLPRPRPRPDDAPRP observable="shrunken log2 fold change" measurement=-0.0674
record_sequence=RRIRRRPPRLPRPRPRPDDFPRP observable="shrunken log2 fold change" measurement=0.252
record_sequence=RRIRYRPPRLPRPRPRPERCPRP observable="shrunken log2 fold change" measurement=-0.12
record_sequence=RRIRHRPPRLPRPRPRPKGPPRP observable="shrunken log2 fold change" measurement=0.216
record_sequence=RRIRNRPPRLPRPRPRPDENPRP observable="shrunken log2 fold change" measurement=0.00254
record_sequence=RRIRWRPPRLPRPRPRPFFGPRP observable="shrunken log2 fold change" measurement=0.352
record_sequence=RRIRFRPPRLPRPRPRPYFAPRP observable="shrunken log2 fold change" measurement=-0.572
record_sequence=RRIRERPPRLPRPRPRPIERPRP observable="shrunken log2 fold change" measurement=0.00274
record_sequence=RRIRHRPPRLPRPRPRPFEYPRP observable="shrunken log2 fold change" measurement=-0.219
record_sequence=RRIRYRPPRLPRPRPRPEIGPRP observable="shrunken log2 fold change" measurement=0.066
record_sequence=RRIRWRPPRLPRPRPRPKWPPRP observable="shrunken log2 fold change" measurement=0.477

---

Here the recorded shrunken log2 fold change is given for each entry.
system: Escherichia coli TOP10; experiment: shrunken log2 fold change of peptide-encoding DNA abundance (4.5 h post-induction vs induction); higher = less antimicrobial activity (less host growth inhibition); details: time post-induction: 4.5 h; library: site-saturation at positions 5, 18, 19, 20
OBSERVABLE: shrunken log2 fold change

record_sequence=RRIRHRPPRLPRPRPRPEYTPRP measurement=-0.0512
record_sequence=RRIRKRPPRLPRPRPRPFKSPRP measurement=-0.294
record_sequence=RRIRIRPPRLPRPRPRPDATPRP measurement=0.0122
record_sequence=RRIRARPPRLPRPRPRPPPFPRP measurement=0.762
record_sequence=RRIRFRPPRLPRPRPRPVAAPRP measurement=1.41
record_sequence=RRIRYRPPRLPRPRPRPPYGPRP measurement=-0.54
record_sequence=RRIRARPPRLPRPRPRPRTPPRP measurement=0.636
record_sequence=RRIRERPPRLPRPRPRPHRIPRP measurement=-0.229
record_sequence=RRIRFRPPRLPRPRPRPSNDPRP measurement=-0.112
record_sequence=RRIRIRPPRLPRPRPRPCRFPRP measurement=-0.0104
record_sequence=RRIRNRPPRLPRPRPRPNPHPRP measurement=-0.116
record_sequence=RRIRRRPPRLPRPRPRPEMFPRP measurement=-0.151
record_sequence=RRIRNRPPRLPRPRPRPYSGPRP measurement=0.00884
record_sequence=RRIRTRPPRLPRPRPRPNWWPRP measurement=0.188
record_sequence=RRIRDRPPRLPRPRPRPRSCPRP measurement=0.2
record_sequence=RRIRTRPPRLPRPRPRPVLGPRP measurement=0.304
record_sequence=RRIRWRPPRLPRPRPRPYKQPRP measurement=-0.0587
record_sequence=RRIRLRPPRLPRPRPRPEKKPRP measurement=-0.176
record_sequence=RRIRDRPPRLPRPRPRPHCNPRP measurement=-0.226
record_sequence=RRIRSRPPRLPRPRPRPTWHPRP measurement=0.179
record_sequence=RRIRDRPPRLPRPRPRPQSGPRP measurement=-0.136
record_sequence=RRIRARPPRLPRPRPRPDGTPRP measurement=0.288
record_sequence=RRIRTRPPRLPRPRPRPAYIPRP measurement=0.412
record_sequence=RRIRWRPPRLPRPRPRPWKTPRP measurement=0.149
record_sequence=RRIRFRPPRLPRPRPRPGLEPRP measurement=-0.0646
record_sequence=RRIRKRPPRLPRPRPRPGNTPRP measurement=-0.0331
record_sequence=RRIRTRPPRLPRPRPRPPFQPRP measurement=0.0322
record_sequence=RRIRIRPPRLPRPRPRPSMYPRP measurement=-1.53
record_sequence=RRIRWRPPRLPRPRPRPVCCPRP measurement=0.469
record_sequence=RRIRGRPPRLPRPRPRPRRHPRP measurement=0.612
record_sequence=RRIRTRPPRLPRPRPRPPTAPRP measurement=-0.0521
record_sequence=RRIRDRPPRLPRPRPRPTCNPRP measurement=0.13

---

Here the recorded shrunken log2 fold change is given for each entry.
test system: Escherichia coli TOP10; assay: shrunken log2 fold change of peptide-encoding DNA abundance (4.5 h post-induction vs induction); higher = less antimicrobial activity (less host growth inhibition); conditions: time post-induction: 4.5 h; library: site-saturation at positions 5, 18, 19, 20
OBSERVABLE: shrunken log2 fold change

record_sequence=RRIRRRPPRLPRPRPRPLYEPRP observable="shrunken log2 fold change" measurement=-0.0905
record_sequence=RRIRIRPPRLPRPRPRPDLKPRP observable="shrunken log2 fold change" measurement=-0.194
record_sequence=RRIRCRPPRLPRPRPRPPNSPRP observable="shrunken log2 fold change" measurement=0.0267
record_sequence=RRIRQRPPRLPRPRPRPLVYPRP observable="shrunken log2 fold change" measurement=-0.737
record_sequence=RRIRERPPRLPRPRPRPIYKPRP observable="shrunken log2 fold change" measurement=-0.305
record_sequence=RRIRSRPPRLPRPRPRPKSLPRP observable="shrunken log2 fold change" measurement=-0.0747
record_sequence=RRIRPRPPRLPRPRPRPTKPPRP observable="shrunken log2 fold change" measurement=0.323
record_sequence=RRIRMRPPRLPRPRPRPIAGPRP observable="shrunken log2 fold change" measurement=-0.0293

---

system: Escherichia coli TOP10; assay: shrunken log2 fold change of peptide-encoding DNA abundance (4.5 h post-induction vs induction); higher = less antimicrobial activity (less host growth inhibition); settings: time post-induction: 4.5 h; library: site-saturation at positions 5, 18, 19, 20;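 note: peptides expressed intracellularly from a pBAD plasmid library in pooled LB shake-flask culture, induced with 0.3% L-arabinose, DNA abundance read by NGS, three biological replicates, DESeq2 with apeglm shrinkage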
Label yes (1) when shrunken log2 fold change is at or above 0.05; otherwise label no (0).

record_sequence=RRIRPRPPRLPRPRPRPGADPRP category="yes (1)"
record_sequence=RRIRLRPPRLPRPRPRPHKIPRP category="no (0)"
record_sequence=RRIRWRPPRLPRPRPRPQHSPRP category="no (0)"
record_sequence=RRIRIRPPRLPRPRPRPQLKPRP category="no (0)"
record_sequence=RRIRQRPPRLPRPRPRPEVPPRP category="no (0)"
record_sequence=RRIRNRPPRLPRPRPRPMEAPRP category="no (0)"
record_sequence=RRIRERPPRLPRPRPRPMRPPRP category="yes (1)"
record_sequence=RRIRHRPPRLPRPRPRPTMNPRP category="no (0)"
record_sequence=RRIRWRPPRLPRPRPRPWFKPRP category="no (0)"
record_sequence=RRIRARPPRLPRPRPRPLNCPRP category="no (0)"
record_sequence=RRIRWRPPRLPRPRPRPHDYPRP category="no (0)"
record_sequence=RRIRLRPPRLPRPRPRPSQAPRP category="yes (1)"
record_sequence=RRIRKRPPRLPRPRPRPMGCPRP category="yes (1)"
record_sequence=RRIRIRPPRLPRPRPRPFGPPRP category="no (0)"
record_sequence=RRIRARPPRLPRPRPRPDCGPRP category="yes (1)"
record_sequence=RRIRCRPPRLPRPRPRPNHIPRP category="no (0)"
record_sequence=RRIRSRPPRLPRPRPRPWFSPRP category="no (0)"
record_sequence=RRIRDRPPRLPRPRPRPECQPRP category="no (0)"
record_sequence=RRIRPRPPRLPRPRPRPPSCPRP category="no (0)"
record_sequence=RRIRMRPPRLPRPRPRPELLPRP category="yes (1)"
record_sequence=RRIRLRPPRLPRPRPRPFMKPRP category="no (0)"
record_sequence=RRIRFRPPRLPRPRPRPINVPRP category="no (0)"
record_sequence=RRIRIRPPRLPRPRPRPNSPPRP category="no (0)"
record_sequence=RRIRVRPPRLPRPRPRPQTTPRP category="yes (1)"
record_sequence=RRIRDRPPRLPRPRPRPYRIPRP category="no (0)"
record_sequence=RRIRTRPPRLPRPRPRPVHTPRP category="yes (1)"
record_sequence=RRIRYRPPRLPRPRPRPIRWPRP category="no (0)"
record_sequence=RRIRQRPPRLPRPRPRPYIWPRP category="no (0)"
record_sequence=RRIRKRPPRLPRPRPRPYGIPRP category="no (0)"
record_sequence=RRIRARPPRLPRPRPRPGHWPRP category="yes (1)"
record_sequence=RRIRWRPPRLPRPRPRPWNLPRP category="no (0)"
record_sequence=RRIRMRPPRLPRPRPRPQNQPRP category="no (0)"
record_sequence=RRIRDRPPRLPRPRPRPEETPRP category="no (0)"
record_sequence=RRIRFRPPRLPRPRPRPICMPRP category="no (0)"
record_sequence=RRIRTRPPRLPRPRPRPRCMPRP category="no (0)"
record_sequence=RRIRERPPRLPRPRPRPPHIPRP category="no (0)"
record_sequence=RRIRARPPRLPRPRPRPILFPRP category="no (0)"
record_sequence=RRIRVRPPRLPRPRPRPALEPRP category="yes (1)"
record_sequence=RRIRHRPPRLPRPRPRPGCNPRP category="no (0)"
record_sequence=RRIRQRPPRLPRPRPRPEFFPRP category="yes (1)"
record_sequence=RRIRSRPPRLPRPRPRPNVMPRP category="no (0)"
record_sequence=RRIRDRPPRLPRPRPRPYKAPRP category="no (0)"
record_sequence=RRIRKRPPRLPRPRPRPVRCPRP category="yes (1)"
record_sequence=RRIRMRPPRLPRPRPRPYRTPRP category="no (0)"
record_sequence=RRIRRRPPRLPRPRPRPFCVPRP category="yes (1)"
record_sequence=RRIRERPPRLPRPRPRPCEFPRP category="no (0)"
record_sequence=RRIRWRPPRLPRPRPRPGWWPRP category="yes (1)"
record_sequence=RRIRARPPRLPRPRPRPWVPPRP category="no (0)"
record_sequence=RRIRYRPPRLPRPRPRPVQDPRP category="no (0)"
record_sequence=RRIRGRPPRLPRPRPRPSQQPRP category="no (0)"
record_sequence=RRIRYRPPRLPRPRPRPTNMPRP category="no (0)"
record_sequence=RRIRYRPPRLPRPRPRPCCPPRP category="no (0)"
record_sequence=RRIRMRPPRLPRPRPRPEVNPRP category="yes (1)"
record_sequence=RRIRERPPRLPRPRPRPCCAPRP category="yes (1)"
record_sequence=RRIRPRPPRLPRPRPRPCYPPRP category="no (0)"
record_sequence=RRIRWRPPRLPRPRPRPQKAPRP category="yes (1)"
record_sequence=RRIRVRPPRLPRPRPRPFRSPRP category="no (0)"
record_sequence=RRIRPRPPRLPRPRPRPILSPRP category="no (0)"
record_sequence=RRIRWRPPRLPRPRPRPKGHPRP category="yes (1)"
record_sequence=RRIRKRPPRLPRPRPRPCGMPRP category="yes (1)"
record_sequence=RRIRGRPPRLPRPRPRPMIAPRP category="yes (1)"
record_sequence=RRIRNRPPRLPRPRPRPYKEPRP category="no (0)"
